target: Sigma non-opioid intracellular receptor 1 (Cavia porcellus, UniProt Q60492); assay: Displacement of [3H]-(+)-pentazocine from sigma1 receptor in guinea pig brain cortex membranes measured after 120 mins by scintillation counting method
Sequence (Q60492 whole entry): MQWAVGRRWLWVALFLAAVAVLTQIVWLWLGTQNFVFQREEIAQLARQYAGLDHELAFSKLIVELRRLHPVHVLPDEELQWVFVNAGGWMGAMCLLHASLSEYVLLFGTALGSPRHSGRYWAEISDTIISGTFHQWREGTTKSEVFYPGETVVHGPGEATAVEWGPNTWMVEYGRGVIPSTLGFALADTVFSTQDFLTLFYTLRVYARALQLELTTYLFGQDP
pKi: −log10 of the molar value.
I would appreciate it if you labelled entries Fulfilled when pKi is 8 or higher, otherwise Not fulfilled.

1) O[C@@H](CN1[C@@H]2CC[C@H]1C/C(=C\c1ccc(Cl)cc1)C2)c1ccccc1    Fulfilled

## Input API: above_or_equal(metric=pKi, cutoff=8) for item `O[C@H](CN1[C@@H]2CC[C@H]1C/C(=C\c1ccc(F)cc1)C2)c1ccccc1`
## Output Fulfilled

## Input Do the same for `O[C@@H](CN1[C@@H]2CC[C@H]1C/C(=C\c1ccccc1)C2)c1ccccc1` please
## Output Fulfilled

## Input // same read-out, input: `O[C@@H](CN1[C@@H]2CC[C@H]1C[C@@H](Cc1ccccc1)C2)c1ccc(F)cc1`
## Output Fulfilled

## Input Record: `O[C@H](CN1[C@@H]2CC[C@H]1C[C@@H](Cc1ccccc1)C2)c1ccccc1`
## Output Fulfilled

## Input Entry to check: `O[C@@H](CN1[C@@H]2CC[C@H]1C/C(=C/c1ccc(F)cc1)C2)c1ccc(F)cc1`
## Output Not fulfilled

###

Reported Ki values for a set of molecules
target: Sigma non-opioid intracellular receptor 1 (Cavia porcellus, UniProt Q60492); test: Displacement of [3H]-(+)-pentazocine from sigma1 receptor in guinea pig brain cortex membranes measured after 120 mins by scintillation counting method
# value in nM; strip the unit string

1. O[C@@H](CN1[C@@H]2CC[C@H]1C/C(=C\c1ccc(F)cc1)C2)c1ccc(F)cc1    0.9
2. O[C@H](CN1[C@@H]2CC[C@H]1C/C(=C/c1ccccc1)C2)c1ccccc1    11

## Input # input molecule: `O[C@H](CN1[C@@H]2CC[C@H]1C[C@H](Cc1ccc(F)cc1)C2)c1ccccc1` ; wanted: its Ki
## Output 2.1

## Input Let us now turn to `O[C@@H](CN1[C@@H]2CC[C@H]1C[C@H](Cc1ccccc1)C2)c1ccc(F)cc1`
## Output 6.7

## Input Next record, please: `O[C@H](CN1[C@@H]2CC[C@H]1C[C@@H](Cc1ccc(F)cc1)C2)c1ccccc1`
## Output 2.6

###

Some compounds, each annotated with its measured inhibition.
tested on: Oocyte; test: Antagonist activity at GluN1a/GluN2B NMDA receptor (unknown origin) expressed in Xenopus oocytes assessed as inhibition of glycine and (S)-glutamate-induced ion channel activation at 1 uM at -70 mV holding potential by two-electrode voltage clamp method relative to control; type: cell-based; conditions: Homo sapiens
Answer with the value and then the unit.

Reference set, count: 2
1) O[C@@H](CN1[C@@H]2CC[C@H]1C[C@H](Cc1ccc(F)cc1)C2)c1ccccc1    5.4%
2) O[C@@H](CN1[C@@H]2CC[C@H]1C/C(=C\c1ccc(F)cc1)C2)c1ccccc1    1.3%

## Input Which inhibition is reported for this compound? `O[C@H](CN1[C@@H]2CC[C@H]1C/C(=C/c1ccc(F)cc1)C2)c1ccccc1`
## Output 1.5%

## Input Field entry: `O[C@@H](CN1[C@@H]2CC[C@H]1C/C(=C/c1ccc(F)cc1)C2)c1ccccc1`
## Output -0.9%

## Input Then this compound: `O[C@@H](CN1[C@@H]2CC[C@H]1C[C@@H](Cc1ccc(F)cc1)C2)c1ccccc1`
## Output 8.7%
